Measured values drawn from paper PMC8515367 for this set.

System: M42F/G121S-ecDHFR (Escherichia coli, UniProt P0ABQ4, G121S/M42F)
Protocol details: Ligand-binding assay, tryptophan fluorescence titration
Measurement label: pKd
In textbook form, pKd equals minus log to base ten of the concentration in mol/L.

// query pKd value for entry NC(=O)C1=CN([C@@H]2O[C@H](COP(=O)(O)OP(=O)(O)OC[C@H]3O[C@@H](n4cnc5c(N)ncnc54)[C@H](OP(=O)(O)O)[C@@H]3O)[C@@H](O)[C@H]2O)C=CC1 [NADPH]
3.94

----------
System: T113V-ecDHFR (Escherichia coli, UniProt P0ABQ4, T113V)
Protocol details: Ligand-binding assay, tryptophan fluorescence titration
Measurement label: pKd
In textbook form, pKd equals minus log to base ten of the concentration in mol/L.

// query pKd value for entry NC(=O)C1=CN([C@@H]2O[C@H](COP(=O)(O)OP(=O)(O)OC[C@H]3O[C@@H](n4cnc5c(N)ncnc54)[C@H](OP(=O)(O)O)[C@@H]3O)[C@@H](O)[C@H]2O)C=CC1
4.86
